target: Gal3S(b1-3)[Fuc(a1-4)]GlcNAc; assay: glycan array binding signal (z-score within array); higher = stronger binding; conditions: glycan notation: IUPAC condensed, linker removed
The full list was thinned out, with the strongest signals kept by preference.
MEASUREMENT TYPE: glycan array binding signal (z-score)
// return a plain number; no unit text

[in] I am curious: what glycan array binding signal (z-score) value has been reported for XTP3-B-MRH2 (Homo sapiens), Q96DZ1 (protein) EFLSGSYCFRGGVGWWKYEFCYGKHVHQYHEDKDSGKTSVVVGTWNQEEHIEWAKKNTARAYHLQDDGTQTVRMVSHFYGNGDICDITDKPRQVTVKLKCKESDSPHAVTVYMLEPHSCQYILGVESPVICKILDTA ?
[out] 0.892

[in] I am curious: what glycan array binding signal (z-score) value has been reported for L-Selectin (Homo sapiens), P14151 (protein) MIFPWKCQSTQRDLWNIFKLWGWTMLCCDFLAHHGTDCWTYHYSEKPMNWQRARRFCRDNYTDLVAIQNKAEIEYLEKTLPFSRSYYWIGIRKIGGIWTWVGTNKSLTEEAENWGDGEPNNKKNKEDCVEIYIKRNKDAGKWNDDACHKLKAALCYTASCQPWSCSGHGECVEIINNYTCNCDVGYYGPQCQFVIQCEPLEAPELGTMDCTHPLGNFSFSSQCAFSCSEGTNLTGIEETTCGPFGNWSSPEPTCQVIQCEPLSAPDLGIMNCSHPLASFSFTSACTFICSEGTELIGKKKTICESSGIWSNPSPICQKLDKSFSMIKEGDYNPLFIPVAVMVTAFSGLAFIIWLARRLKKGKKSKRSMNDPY ?
[out] 3.08

[in] I am curious: what glycan array binding signal (z-score) value has been reported for LFA (Limax flavus) (protein) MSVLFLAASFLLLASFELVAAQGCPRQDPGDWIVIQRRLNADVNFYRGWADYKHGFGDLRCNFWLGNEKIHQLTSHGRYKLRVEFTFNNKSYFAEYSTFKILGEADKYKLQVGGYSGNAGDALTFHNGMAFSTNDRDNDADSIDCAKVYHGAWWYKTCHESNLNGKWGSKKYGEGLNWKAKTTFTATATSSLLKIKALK ?
[out] -0.306
